# System: erythropoietin
# method.description: In vitro erythropoietin induction (ELISA of cell culture supernatant)
# condition.description: Homo sapiens, Hep3B, 16 h, read-out: EPO fold induction, Hep3B cell line, 200 uM, 16 hours, relative to vehicle control
experimental.endpoint: fold induction at 200 µM

# count of solved cases: 3
-- ask Fill in the recorded fold induction at 200 µM for this compound, with erythropoietin as test system: O=C(O)CNC(=O)c1c(O)nc2sc3c(n2c1=O)CCN(Cc1ccc2c(c1)CCC2)C3 [Compound 39]
-- reply 2 to 4

-- ask Fill in the recorded fold induction at 200 µM for this compound, with erythropoietin as test system: COc1ccc(CN2CCc3c(sc4nc(O)c(C(=O)NCC(=O)O)c(=O)n34)C2)cc1 [Compound 31]
-- reply 5 to 8

-- ask Fill in the recorded fold induction at 200 µM for this compound, with erythropoietin as test system: O=C(O)CCNC(=O)c1c(O)nc2sc3c(n2c1=O)CCCCC3 [Compound 30]
-- reply < 2

Others:
-- ask Fill in the recorded fold induction at 200 µM for this compound, with erythropoietin as test system: CC1(C)CCc2sc3nc(O)c(C(=O)NCC(=O)O)c(=O)n3c2C1 [Compound 60]
-- reply 5 to 8

-- ask Fill in the recorded fold induction at 200 µM for this compound, with erythropoietin as test system: CC(C)NC(=S)N1CCc2c(sc3nc(O)c(C(=O)NCC(=O)O)c(=O)n23)C1 [Compound 25]
-- reply 2 to 4

-- ask Fill in the recorded fold induction at 200 µM for this compound, with erythropoietin as test system: C[C@@H](NC(=O)c1c(O)nc2sc3c(n2c1=O)CCC(C)(C)C3)C(=O)O [Compound 44]
-- reply < 2

---

# Test system: adrenomedullin mRNA
# method.description: In vitro induction of adrenomedullin mRNA (real-time PCR, normalized to 18S rRNA)
# Format: cell-based
# condition.description: Homo sapiens, Hep3B, 6 h, Hep3B cell line, relative to vehicle control
experimental.endpoint: fold induction at 200 µM

-- ask Query (compound): O=C(O)CNC(=O)c1c(O)nc2sc3c(n2c1=O)CCCCC3 [Compound 10] ; field requested: fold induction at 200 µM
-- reply > 8

-- ask Query (compound): CC(NC(=O)c1c(O)nc2sc3c(n2c1=O)CCCCC3)C(=O)O (stereo not shown) [Compound 32] ; field requested: fold induction at 200 µM
-- reply 2 to 4

-- ask Query (compound): CC1(C)CCc2c(sc3nc(O)c(C(=O)NCC(=O)O)c(=O)n23)C1 [Compound 34] ; field requested: fold induction at 200 µM
-- reply 5 to 8

-- ask Query (compound): O=C(O)CNC(=O)c1c(O)nc2sc3c(n2c1=O)CCN(Cc1ccc(Cl)cc1)C3 [Compound 23] ; field requested: fold induction at 200 µM
-- reply 2 to 4

-- ask Query (compound): O=C(O)CNC(=O)c1c(O)nc2sc3c(n2c1=O)CCN(Cc1ccc(C(F)(F)F)cc1)C3 [Compound 52] ; field requested: fold induction at 200 µM
-- reply 5 to 8

Others:
-- ask Query (compound): O=C(O)CNC(=O)c1c(O)nc2sc3c(n2c1=O)CCN(Cc1ccc(Cl)c(Cl)c1)C3 [Compound 49] ; field requested: fold induction at 200 µM
-- reply 5 to 8

-- ask Query (compound): O=C(O)CNC(=O)c1c(O)nc2sc3c(n2c1=O)CCN(C(=O)CC1CC1)C3 [Compound 27] ; field requested: fold induction at 200 µM
-- reply > 8

---

fold induction at 200 µM: recorded values
# System: erythropoietin
# method.description: In vitro erythropoietin induction (ELISA of cell culture supernatant)
# condition.description: Homo sapiens, Hep3B, 16 h, read-out: EPO fold induction, Hep3B cell line, 200 uM, 16 hours, relative to vehicle control

-- ask Fill in the recorded fold induction at 200 µM for this molecule, with erythropoietin as test system: CC(C)S(=O)(=O)N1CCc2c(sc3nc(O)c(C(=O)NCC(=O)O)c(=O)n23)C1 [Compound 5]
-- reply 2 to 4

-- ask Fill in the recorded fold induction at 200 µM for this molecule, with erythropoietin as test system: O=C(O)CNC(=O)c1c(O)nc2sc3c(n2c1=O)CCN(C(=O)Nc1ccccc1)C3 [Compound 8]
-- reply 2 to 4

-- ask Fill in the recorded fold induction at 200 µM for this molecule, with erythropoietin as test system: O=C(O)CNC(=O)c1c(O)nc2sc3c(n2c1=O)CCN(C(=O)C1CC1)C3 [Compound 9]
-- reply 5 to 8

-- ask Fill in the recorded fold induction at 200 µM for this molecule, with erythropoietin as test system: O=C(O)CNC(=O)c1c(O)nc2sc3c(n2c1=O)CCN(c1ccc(C(F)(F)F)cn1)C3 [Compound 18]
-- reply 9 to 16

-- ask Fill in the recorded fold induction at 200 µM for this molecule, with erythropoietin as test system: CC1(C)CCc2c(sc3nc(O)c(C(=O)NC(C)(C)C(=O)O)c(=O)n23)C1 [Compound 54]
-- reply < 2

Others:
-- ask Fill in the recorded fold induction at 200 µM for this molecule, with erythropoietin as test system: O=C(O)CNC(=O)c1c(O)nc2oc3c(n2c1=O)CCCC3 [Compound 57]
-- reply < 2

-- ask Fill in the recorded fold induction at 200 µM for this molecule, with erythropoietin as test system: O=C(O)CNC(=O)c1c(O)nc2sc3c(n2c1=O)CCCCCC3 [Compound 38]
-- reply 9 to 16

-- ask Fill in the recorded fold induction at 200 µM for this molecule, with erythropoietin as test system: O=C(O)CNC(=O)c1c(O)nc2sc3c(n2c1=O)CCCCC3 [Compound 10]
-- reply > 16

-- ask Fill in the recorded fold induction at 200 µM for this molecule, with erythropoietin as test system: Cc1ccc(S(=O)(=O)N2CCc3c(sc4nc(O)c(C(=O)NCC(=O)O)c(=O)n34)C2)cc1 [Compound 7]
-- reply 2 to 4

-- ask Fill in the recorded fold induction at 200 µM for this molecule, with erythropoietin as test system: COc1ccc(C(=O)N2CCc3c(sc4nc(O)c(C(=O)NCC(=O)O)c(=O)n34)C2)cc1Cl [Compound 37]
-- reply 5 to 8

-- ask Fill in the recorded fold induction at 200 µM for this molecule, with erythropoietin as test system: CC(C)(C)C1CCc2c(sc3nc(O)c(C(=O)NCCC(=O)O)c(=O)n23)C1 (centres unmarked) [Compound 15]
-- reply < 2

-- ask Fill in the recorded fold induction at 200 µM for this molecule, with erythropoietin as test system: CC1(C)CCc2c(sc3nc(O)c(C(=O)NCC(=O)O)c(=O)n23)C1 [Compound 34]
-- reply > 16

-- ask Fill in the recorded fold induction at 200 µM for this molecule, with erythropoietin as test system: CCCCc1ccc(C(=O)N2CCc3c(sc4nc(O)c(C(=O)NCC(=O)O)c(=O)n34)C2)cc1 [Compound 21]
-- reply 9 to 16

-- ask Fill in the recorded fold induction at 200 µM for this molecule, with erythropoietin as test system: O=C(O)CNC(=O)c1c(O)nc2sc3c(n2c1=O)CCN(Cc1ccc(Cl)cc1)C3 [Compound 23]
-- reply 9 to 16

-- ask Fill in the recorded fold induction at 200 µM for this molecule, with erythropoietin as test system: O=C(O)CNC(=O)c1c(O)nc2sc3c(n2c1=O)CCN(Cc1ccc(Cl)c(Cl)c1)C3 [Compound 49]
-- reply 5 to 8

-- ask Fill in the recorded fold induction at 200 µM for this molecule, with erythropoietin as test system: O=C(O)CNC(=O)c1c(O)nc2sc3c(n2c1=O)CCN(C(=O)CC1CCCC1)C3 [Compound 29]
-- reply 9 to 16

-- ask Fill in the recorded fold induction at 200 µM for this molecule, with erythropoietin as test system: CN(CC(=O)O)C(=O)c1c(O)nc2sc3c(n2c1=O)CCC(C)(C)C3 [Compound 61]
-- reply < 2
